assay: AP1 Signaling Pathway (AID 357); conditions: ME-180 AP-1-bla reporter, EGF-induced, beta-lactamase ratio, 5 h; at 7.69 µM (top of the series) unless noted;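 further: ME-180 reporter cells stimulated with EGF at its EC50 level; on the % scale 0 is the no-effect control and ±100 the full control effect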
Records with an inconclusive call do not appear.
// values below are reported activity change, negative = inhibition
observed_property: activity change, negative = inhibition (%)

Nc1ccccc1N=Nc1c(S(=O)(=O)O)cc2cc(S(=O)(=O)O)cc(O)c2c1O : -8.99
O=C(CCCc1ccccn1)c1ccccc1 : 4.82
CC(=O)N[C@H](Cc1ccc(O)cc1)C(=O)O : -0.588
C[C@@H]1Oc2ccc(C(=O)C[C@@H](C(=O)O)c3ccc4c(c3)OCO4)cc2O1 : 1.87
O=C(O)C(F)(F)C(F)(F)C(F)(F)C(F)(F)C(=O)O : -0.129
CN(C)CCN(c1ccccn1)c1ccccn1 : 11.2
C#CCOCCCC(=O)O : -3.26
Clc1ccc2c(N3CCC(CCC4CCN(c5ncnc6cc(Cl)ccc56)CC4)CC3)ncnc2c1 : 0.285
C[C@]12CCC3c4ccc(OCC(=O)O)cc4CCC3C1CCC2=O (stereo partly specified) : 6.42
CC(=NCC(=O)O)c1ccccc1 : 0.333
CC[C@H]1CC[C@H]2[C@@H]3CC=C4C[C@H](OC(C)=O)[C@@H](N)C[C@@]4(C)[C@H]3CC[C@@]12C : 8.35

----------
system: AA1029; assay: qHTS profiling for inhibitors of Plasmodium falciparum proliferation (AID 504749); further: nearly all actives have a fitted effect of over 60% in size; settings: P. falciparum in erythrocytes, SYBR Green DNA, 72 h; series mostly up to 28.7 µM
Inconclusive results are not listed. Activity calls are given as the source filed them. Calls come from the whole dose curve; as a rule, active = well fitted inhibition curve with a large enough effect; inconclusive = small, poorly fitted or top-dose-only effect; inactive = flat fitted curve, though single readings scatter.
Possible outcomes: 1 for active, 0 for inactive

N[C@H](COP(=O)(O)O)C(=O)O : 0
CC(=O)N1CCN(c2ccc(OC[C@@H]3CO[C@@](Cn4ccnc4)(c4ccc(Cl)cc4Cl)O3)cc2)CC1 : 0
CN1[C@@H]2CC(OC(=O)[C@@H](CO)c3ccccc3)C[C@@H]1[C@H]1O[C@H]12 (some centres undefined) : 0
N[C@@H](Cc1ccccc1)C(=O)O : 0
C[C@@H]1C[C@H]2[C@H]3C[C@@H](F)C4=CC(=O)C=C[C@]4(C)[C@@]3(Cl)[C@@H](O)C[C@@]2(C)[C@@H]1C(=O)COC(=O)C(C)(C)C : 0
Cc1onc(-c2c(F)cccc2Cl)c1C(=O)N[C@@H]1C(=O)N2[C@H]1SC(C)(C)[C@H]2C(=O)O : 0
C[N+]1(C)[C@@H]2CC(OC(=O)[C@@H](CO)c3ccccc3)C[C@@H]1[C@H]1O[C@H]12 (some centres undefined) : 0
CC(C)(C)c1ccc(CN2CCN([C@H](c3ccccc3)c3ccc(Cl)cc3)CC2)cc1 : 1
O=C(O)[C@@H](S)[C@H](S)C(=O)O : 1

----------
test: qHTS assay for small molecule disruptors of the mitochondrial membrane potential - 1 hr assay (AID 651754); settings: series mostly up to 92.2 µM; further: nearly all actives have a fitted effect of over 35% in size
Inconclusive results are not listed. The source made the active and inactive calls. Calls come from the whole dose curve.
Possible outcomes: active, inactive

C/C=C/C=C/C=O : inactive
CC(=O)CC(=O)Nc1ccccc1 : inactive
Cc1c2ccccc2c(C)c2c1ccc1ccccc12 : active
Cc1cc2nc(N)sc2cc1C : inactive
COc1ccc(C)cc1N : inactive
O=C=Nc1ccc(Cl)c(Cl)c1 : active
O=CC(=O)c1ccccc1 : inactive
CCNC(=S)NCC : inactive
CCCCCCCCOc1ccc(C(=O)O)cc1 : inactive
Nc1ccc(-c2ccc(N)c(O)c2)cc1O : inactive
NC(=O)c1ccc([N+](=O)[O-])cc1 : inactive
CCCC(=O)OC(=O)CCC : inactive
CCN(CC)c1ccc(N)cc1 : active
CCCCCCCC/C=C\CCCCCCCC(=O)N(CCO)CCO : inactive
OCC(CO)(CBr)CBr : inactive
CC(=O)OC1CC(C)OC(C)O1 (stereo unspecified) : inactive

----------
assay: AP1 Signaling Pathway (AID 357); conditions: ME-180 AP-1-bla reporter, EGF-induced, beta-lactamase ratio, 5 h; at 7.69 µM (top of the series) unless noted;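 further: ME-180 reporter cells stimulated with EGF at its EC50 level; on the % scale 0 is the no-effect control and ±100 the full control effect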
Inconclusive results are not listed. Residues, ends and D or L forms follow the SMILES beside them.
observed_property: activity change, negative = inhibition (%)

Cc1c(C)c(C)c(CC2(C)CSC2)c(CC2(C)CSC2)c1C : 10.3
Cc1noc(C)c1C(=O)N1CCC2(CC1)CN(c1cccc(-c3ccccc3)c1)C2 : -13.8
COC(=O)[C@@H]1O[C@@H](SCCN)[C@@H](O)[C@H](O)[C@H]1O : 0.576
Cc1cc(C)c2nc3c(c([C@H](O)[C@@H]4CCCCN4)c2c1)CC/C3=C/c1ccc(Cl)cc1 : 4.75
CC(C)(Oc1ccc(-c2cccc3ccccc23)cc1)C(=O)O : 2.76
Nc1nc(SCc2ccccn2)c2ncn(C3CCCC3)c2n1 : -14.6
c1ccc(CSc2nnc3c4ccccc4c4ccccc4c3n2)cc1 : 6.19
Cn1c(=O)c2[nH]c(COCc3nc4c([nH]3)c(=O)n(C)c(=O)n4C)nc2n(C)c1=O : 6.66
N[C@@H](CC1=CS(=O)(=O)c2ccc(Cl)cc21)C(=O)O : -5.74
O=c1cnc2cnc(Oc3ccccc3)nc2n1Cc1ccc(F)cc1 : -8.79
O=C(O)C[C@H](Cc1ccc2c(c1)OCO2)C(=O)O : 2.2
Cc1ccc(S(=O)(=O)OC2CCN(C)CC2)cc1 : 0.369
Nc1nc(Cl)cc(NCCO)n1 : -4.13
Nc1n[nH]c2ccccc12 : -6.63
O=C(O)CCC(=O)c1ccc[nH]1 : -0.936
OC[C@@H]1O[C@@H](n2cnc3c(SCc4ccccc4)ncnc32)[C@@H](O)[C@H]1O : 3.13
C[N+](C)(C)/N=C\c1ccc(O)c(O)c1 : 4.59
O=C1CCC[C@H]1C(=O)Nc1ccc2ccccc2c1 : 7.06
Nc1nc2nc3c(nc2c(=O)[nH]1)CN(c1ccc(C(=O)O)cc1)C3=O : -9.73
N#C[C@H](C(=O)O)C(c1c(Cl)cccc1Cl)[C@H](C#N)C(=O)O : 1.46
Cc1ccc(-c2nnc(-c3ccc4ccccc4c3)o2)cc1 : 13.5
N[C@H](CO)C(=O)NCC(=O)O (HELM PEPTIDE1{[dS].G}$$$$V2.0) : -4.49
Cn1c(=O)c2c(nc(Cc3ccccc3)n2CC(=O)O)n(C)c1=O : 6.03

----------
// values below are reported activity change, negative = inhibition
test: AP1 Signaling Pathway (AID 357); conditions: ME-180 (cervical carcinoma) AP-1-bla reporter, EGF-induced, beta-lactamase ratio, 5 h; at 7.69 µM (top of the series) unless noted;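 further: ME-180 reporter cells stimulated with EGF at its EC50 level; on the % scale 0 is the no-effect control and ±100 the full control effect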
Records with an inconclusive call do not appear. Active and inactive are the calls of the source. Calls come from the whole dose curve; as a rule, active = well fitted curve in either direction with a large enough effect (not every such curve was filed as active); inconclusive = small, poorly fitted or top-dose-only effect, or another doubt; inactive = flat fitted curve, though single readings scatter.
observed_property: activity change, negative = inhibition

O=C(O)C[C@@H](C(=O)O)C1c2ccccc2-c2ccccc21 : -0.496% (inactive)
OC[C@H](CCc1c[nH]c2ccccc12)c1c[nH]c2ccccc12 : -11.6% (inactive)
O=C(O)COc1c(Cl)cc(Cl)c2cccnc12 : 6.1% (inactive)
Cc1ccc(S(=O)(=O)NC(=O)Nc2ncn[nH]2)cc1 : 3.19% (inactive)
CC1(C)CC(Nc2ccc(Nc3ccccc3)cc2)CC(C)(C)N1 : -24.4% (inactive)
COc1ccc(CCN(C)CCC[C@@](C#N)(c2cc(OC)c(OC)c(OC)c2)C(C)C)cc1OC : 2.08% [at 38 µM] (inactive)
O=C1C[C@H]2OCC=C3CN4CC[C@@]5(C(=O)O)[C@H](N1)[C@H]2[C@H]3C[C@H]45 : 1.86% (inactive)
COCCn1c(=O)c(-c2ccc(OC)cc2)nc2cnc(OC)nc21 : 2.45% (inactive)
O=C(O)C[C@H](Cc1ccccc1Cl)C(=O)O : -0.0824% (inactive)
O=C(O)c1cscc1Cc1cccs1 : -0.132% (inactive)
CC1=NN(c2ccc(S(=O)(=O)O)cc2)C(=O)/C1=C\c1ccc(Cl)cc1 : 3.84% (inactive)
NN(CC(=O)O)CC(=O)O : -2.45% (inactive)
NCC(=O)Nc1ccccc1 : 4.23% (inactive)
C(=N/Nc1nnc2c(n1)[nH]c1ccccc12)/c1cccnc1 : -0.49% (inactive)
Nc1ccc(N(S(=O)(=O)c2ccccc2)S(=O)(=O)c2ccccc2)c(Cl)c1 : -27.7% (inactive)
Nc1ncnc2c1ncn2[C@H]1O[C@@H](CO)[C@@H](O)[C@H]1N : -9.35% (inactive)
O=C(O)C[C@H]1OCC=C2C[N@@+]3([O-])CC[C@]45c6ccccc6N[C@@H]4[C@@H]1[C@H]2C[C@H]53 : 9.8% (inactive)
CNc1ncnc(Sc2nc(N)nc3nc[nH]c23)c1[N+](=O)[O-] : -9.31% (inactive)
C[C@@]12CC(=O)[C@@H]3[C@@H](CCC4=CC(=O)CC[C@]43C)[C@@H]1CC=C2CC(=O)O : -4.3% (inactive)
CC(C)c1cc(CN(C)C)c(O)c(C(C)(C)C)c1 : 1.46% (inactive)
O=C(O)/C(Cc1ccc([N+](=O)[O-])cc1)=N/O : 3.45% (inactive)
O=C(O)C[n+]1ccccc1 : -3.27% (inactive)
CCn1c2ccccc2c2nnc(NCCCO)nc21 : 7.47% (inactive)
O=C(O)c1ccc(NS(=O)(=O)Cc2ccccc2)cc1 : 6.38% (inactive)
O=C(O)[C@@H]1CCCN1Cc1c[nH]c2ccccc12 : 6.54% (inactive)
CC1=CC(C)(C)Nc2ccc(CSc3ccccc3)cc21 : 3.94% (inactive)
